Data origin, for the record: patent US20230105029A1

Property: pEC50; scope: individual binders
Molecular target: T1, recombinant human IL4Rα-his protein (in house made) (human, UniProt P24394 26-232, limits assumed)
T1 construct: also called Human IL4Ra-his
Experiment: capture ELISA, biotin-IL4Rα-his
When answering, recall that pEC50 equals minus log10 of the concentration in mol/L, and write that number alone.

>  <binder>
mouse antibody B1D2F7D3B5 (antibody, V domains shown, Mouse hybridoma mAb) VH: EVKLVESGGGLVKPGGSLKLSCAASGFTFSSYAMSWVRQTPEKRLEWVASISSGDSTYYLDSVKGRFTISRDNAMNILYLQMSSLRSEDTAVYYCERSGGSAPYWGQGTLVSVSA VL: QIVLTQSPAIMSASPGEMVTISCSASSSVSYMYWYQQKPGSSPKPWIYRTSNLASGVPARFSGSGSGTSYSLTISSMEAEDAATYYCQQYHSFPLTFGAGTKLELK

>  <pEC50>
10.22

$$$$
>  <binder>
mouse antibody B8G11F2B7G5E8 (antibody, V domains shown, Mouse hybridoma mAb; also called Mouse B8G11F2B7G5E8; mAb B8G11F2B7G5E8) VH: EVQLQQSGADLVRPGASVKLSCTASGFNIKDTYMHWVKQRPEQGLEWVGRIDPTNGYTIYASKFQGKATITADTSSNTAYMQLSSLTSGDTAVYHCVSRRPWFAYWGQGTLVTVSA VL: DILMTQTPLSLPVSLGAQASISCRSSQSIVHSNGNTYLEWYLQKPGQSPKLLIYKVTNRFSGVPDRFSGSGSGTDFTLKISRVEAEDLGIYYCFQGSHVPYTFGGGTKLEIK

>  <pEC50>
10.40

$$$$

I would be grateful if you could share the reported pEC50 for mouse antibody C2C1A1A1 (antibody, V domains shown, Mouse hybridoma mAb; also called Mouse C2C1A1A1) VH: EVQLVESGGGLVQPGGSLKLSCAASGFTFSTYGMSWVRQTPDKRLELVATINSNGGSTSYPDSVKGRFTISRDNAKNTLYLQMSSLKSEDTAMFYCARFFRFRNAMDYWGQGTSVTVSS VL: DIQMTQSPASLSASVGETVTITCRTSENIYSYLAWYQQKQGKSPQFLVYNAKTLAEGVPSRFSGSGSGTQFSLNINSLQSEDFGSYYCQHYYGPPTWTFGGGTKLEIK .
10.10

I would be grateful if you could share the reported pEC50 for mouse antibody C2B2F7B7 (antibody, V domains shown, Mouse hybridoma mAb) VH: EVQLVESGGGLVQPGGSLKLSCAASGFTFSTYGMSWVRQTPDKRLELVATINSNGGSTNYPDSVKGRFTISRDNAKNTLYLQMSSLKSEDTAMYYCARFFRIRNAMDYWGQGTSVTVSS VL: DIQMTQSPASLSASVGETVTITCRASENIYSYLAWYQQKQGKSPQFLVYNAKTLAEGVPSRFSGSGSGTQFSLKINSLQPEDFGSYYCQHYYGTPTWTFGGGTKLEIK .
9.89

I would be grateful if you could share the reported pEC50 for mouse antibody B9D1D11F8D8 (antibody, V domains shown, Mouse hybridoma mAb) VH: EVKLVESGGGLVKPGGSLKLSCAASGFTFSSYAMSWVRQTPEKRLEWVASISSGDSTYYLDSVKGRFTISRDNARNILYLQVSSLRSEDTAMYYCERSGGSAPYWGQGTLVTVSA VL: QIVLTQSPAIMSASPGDMVTISCSASSSVNYMYWYQQKPGSSPKPWIYRTSNLASGVPARFSGSGSGTSYSLTISSMEAEDAATYYCQQYHSFPLTFGAGTKLELK .
10.15
